Experiment: Pharmacokinetic profiles in rats
Format: in vivo
Conditions: iv dosing, 2 mg/kg
measured-metric: Cl/F (mL/min/kg)

Sample answers from the record:
{"columns": ["compound", "result-number"],
 "data": [
  ["COc1ncc(-c2ccn3ncc(C#CCO)c3c2)cc1NS(=O)(=O)c1ccc(F)cc1F", 4.67],
  ["COc1ncc(-c2ccn3ncc(C#N)c3c2)cc1NS(=O)(=O)c1ccc(F)cc1F", 4.83]
]}

a = COc1ncc(-c2ccn3ncc(C#CC(C)O)c3n2)cc1NS(=O)(=O)c1ccc(F)cc1F (centres unmarked)
b = COc1ncc(-c2ccn3ncc(C#N)c3n2)cc1NS(=O)(=O)c1ccc(F)cc1F
c = COc1ncc(-c2ccn3ncc(C#CCO)c3n2)cc1NS(=O)(=O)c1ccc(F)cc1F
INPUT: Reorder: Cl/F, max to min. Answer format: the labels, ordered as requested.
OUTPUT: b, c, a
(b: 4.33 mL/min/kg, c: 2.83 mL/min/kg, a: 0.83 mL/min/kg)

Data provenance is patent US9573953B2.
